For each record, write down the corresponding % Binding.
# ASSAYED TARGET: EphB6 (receptor of Table 1)
# EXPERIMENT DESCRIPTION: EphB receptor specificity panel (% binding)
Answers are plain numbers, in %.

# count of solved cases: 3
INSERT INTO results (binder, value_reported) VALUES
  ('DHWPLLPYALAH (Panned on EphB2) [… peptide (SEQ ID NO:16)]', 0),
  ('WHWTIEPFAITS (Panned on EphB2) [WHWTIEPFAITS peptide (SEQ ID NO:8)]', 45),
  ('NHWPTQPYAIPI (Panned on EphB2) [NHWPTQPYAIPI peptide (SEQ ID NO:15)]', 0);

// moving on: another record for % Binding
Answer with the recorded % Binding of IHWPVAPYSYLD (Panned on EphB2) [IHWPVAPYSYLD peptide (SEQ ID NO:11)] only. 7
